Just for reference, ChEMBL document CHEMBL3616472 is where these values come from.

test: Lipophilicity, logD of the compound at pH 7.4 by shake flask method; assay type: physicochemical; settings: buffer
Label scheme, based on logD: lower level: < 0.07; middle level: ≥ 0.07 and < 0.5; upper level: ≥ 0.5

INSERT INTO measurements (compound, assigned_label) VALUES
  ('CC(Oc1cccc(C(C)(C)C)c1)C(=O)Nc1ccc(OCC(=O)O)c(F)c1 (stereo unspecified)', 'upper level'),
  ('Cc1ccc(C(C)C)cc1OCC(=O)Nc1ccc(OCC(=O)O)c(F)c1', 'middle level'),
  ('O=C(O)COc1ccc(NC(=O)COc2ccccc2)cc1F', 'lower level'),
  ('Cc1ccc(OC(C)C(=O)Nc2ccc(OCC(=O)O)c(F)c2)cc1C (stereo unspecified)', 'middle level'),
  ('CC(C)(C)c1cccc(OCC(=O)Nc2ccc(OCC(=O)O)c(F)c2)c1', 'middle level'),
  ('Cc1cc(OCCCS(C)(=O)=O)cc(C)c1-c1cccc(COc2ccc3c(c2)OC[C@H]3CC(=O)O)c1', 'upper level'),
  ('Cc1cccc(OCC(=O)Nc2ccc(OCC(=O)O)c(F)c2)c1', 'lower level'),
  ('CC(Oc1ccccc1)C(=O)Nc1ccc(OCC(=O)O)c(F)c1 (stereo unspecified)', 'lower level'),
  ('CC(C)c1cccc(OCC(=O)Nc2ccc(OCC(=O)O)c(F)c2)c1', 'middle level'),
  ('Cc1cc(OCCCS(C)(=O)=O)cc(C)c1-c1cccc(COc2ccc(OCC(=O)O)c(F)c2)c1', 'upper level');

====

target: Free fatty acid receptor 1 (Homo sapiens, UniProt O14842); test: Agonist activity at human FFA1 expressed in CHO cells assessed as induction of receptor activation by measuring Ca2+influx incubated for by FLIPR method
Sequence (O14842 whole entry): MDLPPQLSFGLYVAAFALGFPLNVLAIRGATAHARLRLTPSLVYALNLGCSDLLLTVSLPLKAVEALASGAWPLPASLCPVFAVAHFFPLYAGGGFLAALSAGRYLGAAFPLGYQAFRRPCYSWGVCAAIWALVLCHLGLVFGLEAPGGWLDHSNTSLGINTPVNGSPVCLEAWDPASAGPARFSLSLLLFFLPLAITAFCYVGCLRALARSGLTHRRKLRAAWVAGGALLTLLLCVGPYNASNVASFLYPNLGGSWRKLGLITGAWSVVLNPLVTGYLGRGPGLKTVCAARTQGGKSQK
READOUT_TYPE: EC50 (nM)

INSERT INTO assay_data (compound, output_unit, value_observed) VALUES
  ('Cc1ccc(OC(C)C(=O)Nc2ccc(OCC(=O)O)c(F)c2)cc1C (centres undefined)', 'nM', 133),
  ('Cc1ccc(OCC(=O)Nc2ccc(OCC(=O)O)c(F)c2)cc1', 'nM', 148),
  ('CC(C)(C)c1cccc(OCC(=O)Nc2ccc(OCC(=O)O)c(F)c2)c1', 'nM', 122),
  ('CC(Oc1ccccc1F)C(=O)Nc1ccc(OCC(=O)O)c(F)c1 (centres undefined)', 'nM', 136),
  ('Cc1cccc(OCC(=O)Nc2ccc(OCC(=O)O)c(F)c2)c1', 'nM', 108),
  ('COc1cccc(OCC(=O)Nc2ccc(OCC(=O)O)c(F)c2)c1', 'nM', 148),
  ('CC(Oc1ccccc1)C(=O)Nc1ccc(OCC(=O)O)c(F)c1 (centres undefined)', 'nM', 135),
  ('CC(C)c1cccc(OCC(=O)Nc2ccc(OCC(=O)O)c(F)c2)c1', 'nM', 116),
  ('CC(Oc1cccc(C(C)(C)C)c1)C(=O)Nc1ccc(OCC(=O)O)c(F)c1 (centres undefined)', 'nM', 140);

====

target: Free fatty acid receptor 1 (Homo sapiens); experiment: Agonist activity at human FFA1 expressed in CHO cells assessed as induction of receptor activation by measuring Ca2+influx at 300 nM incubated for by FLIPR method; type: functional, cell-based
READOUT_TYPE: Activity (%)

INSERT INTO measurements (structure_notation, value_observed) VALUES
  ('O=C(O)COc1ccc(NC(=O)c2ccccc2)cc1F', 12.8),
  ('O=C(O)COc1ccc(NC(=O)Nc2ccccc2)cc1F', 23.7),
  ('Cc1cccc(NC(=O)C(=O)Nc2ccc(OCC(=O)O)c(F)c2)c1', 36.3),
  ('Cc1cc(OCCCS(C)(=O)=O)cc(C)c1-c1cccc(COc2ccc(OCC(=O)O)c(F)c2)c1', 67.3),
  ('O=C(O)COc1ccc(NC(=O)C2(C(=O)Nc3ccccc3)CC2)cc1F', 34.2),
  ('COc1ccccc1NC(=O)C(=O)Nc1ccc(OCC(=O)O)c(F)c1', 19.9),
  ('Cc1ccc(NC(=O)C(=O)Nc2ccc(OCC(=O)O)c(F)c2)cc1', 29.9),
  ('O=C(O)COc1ccc(NC(=O)Cc2ccccc2)cc1F', 39.6),
  ('O=C(O)COc1ccc(NC(=O)C(=O)Nc2ccccc2Cl)cc1F', 27.9),
  ('O=C(O)COc1ccc(NC(=O)C(=O)Nc2ccccc2)cc1F', 26.5),
  ('O=C(O)COc1ccc(NC(=O)C(=O)Nc2cccc(Cl)c2)cc1F', 33.7),
  ('O=C(O)COc1ccc(NC(=O)COc2ccccc2)cc1F', 58.7);

====

Reported values of Activity for individual entries
molecular target: Free fatty acid receptor 1 (Homo sapiens, UniProt O14842); assay: Agonist activity at human FFA1 expressed in CHO cells assessed as induction of receptor activation by measuring Ca2+influx at 100 nM incubated for by FLIPR method; format: functional, cell-based
READOUT_TYPE: Activity (%)

INSERT INTO assay_data (compound, output_unit, value_observed) VALUES
  ('CC(Oc1ccccc1F)C(=O)Nc1ccc(OCC(=O)O)c(F)c1 (configuration not stated)', '%', 35.1),
  ('CC(C)c1cccc(OCC(=O)Nc2ccc(OCC(=O)O)c(F)c2)c1', '%', 43.3),
  ('O=C(O)COc1ccc(NC(=O)c2ccccc2)cc1F', '%', 3.56),
  ('Cc1ccc(OCC(=O)Nc2ccc(OCC(=O)O)c(F)c2)cc1', '%', 31.2),
  ('CC(C)(Oc1ccccc1)C(=O)Nc1ccc(OCC(=O)O)c(F)c1', '%', 3.56),
  ('COc1ccc(OCC(=O)Nc2ccc(OCC(=O)O)c(F)c2)cc1', '%', 5.73),
  ('CC(C)(C)c1cccc(OCC(=O)Nc2ccc(OCC(=O)O)c(F)c2)c1', '%', 40.2),
  ('Cc1ccc(C)c(OC(C)C(=O)Nc2ccc(OCC(=O)O)c(F)c2)c1 (configuration not stated)', '%', 18.6),
  ('Cc1ccc(NC(=O)C(=O)Nc2ccc(OCC(=O)O)c(F)c2)cc1', '%', 11.3),
  ('O=C(O)COc1ccc(NC(=O)C(=O)Nc2ccccc2)cc1F', '%', 9.78),
  ('Cc1cc(C)cc(OC(C)C(=O)Nc2ccc(OCC(=O)O)c(F)c2)c1 (configuration not stated)', '%', 25.7),
  ('O=C(O)COc1ccc(NC(=O)COc2ccc(OC(F)(F)F)cc2)cc1F', '%', 6.45),
  ('O=C(O)COc1ccc(NC(=O)C(=O)Nc2ccccc2Cl)cc1F', '%', 10.2),
  ('CCOc1ccccc1OC(C)C(=O)Nc1ccc(OCC(=O)O)c(F)c1 (configuration not stated)', '%', 8.79),
  ('O=C(O)COc1ccc(NC(=O)Cc2ccccc2)cc1F', '%', 19.9),
  ('CC(Oc1cccc(C(F)(F)F)c1)C(=O)Nc1ccc(OCC(=O)O)c(F)c1 (configuration not stated)', '%', 12.7),
  ('Cc1ccc(C(C)C)cc1OCC(=O)Nc1ccc(OCC(=O)O)c(F)c1', '%', 14.6),
  ('COc1ccccc1NC(=O)C(=O)Nc1ccc(OCC(=O)O)c(F)c1', '%', 6.78),
  ('Cc1cccc(OCC(=O)Nc2ccc(OCC(=O)O)c(F)c2)c1', '%', 45.4),
  ('Cc1ccc(C(C)C)cc1OC(C)C(=O)Nc1ccc(OCC(=O)O)c(F)c1 (configuration not stated)', '%', 19.4),
  ('O=C(O)COc1ccc(NC(=O)C(=O)Nc2cccc(Cl)c2)cc1F', '%', 13.3),
  ('Cc1cc(OCCCS(C)(=O)=O)cc(C)c1-c1cccc(COc2ccc(OCC(=O)O)c(F)c2)c1', '%', 54.9),
  ('CC(Oc1ccccc1)C(=O)Nc1ccc(OCC(=O)O)c(F)c1 (configuration not stated)', '%', 35.7),
  ('O=C(O)COc1ccc(NC(=O)COc2ccccc2)cc1F', '%', 29.8),
  ('O=C(O)COc1ccc(NC(=O)C2(C(=O)Nc3ccccc3)CC2)cc1F', '%', 13.6),
  ('COc1cccc(OCC(=O)Nc2ccc(OCC(=O)O)c(F)c2)c1', '%', 31.7),
  ('CC(C)c1ccc(OCC(=O)Nc2ccc(OCC(=O)O)c(F)c2)cc1', '%', 11.8);
